# assay.comment: activity coefficient (dimensionless); of the first substance listed, at infinite dilution; xn = mol fraction of the nth substance listed
# measurement.setup: 343.15 K; Liquid; Chromatography; x1 = 0
Measured activity coefficient, listed per entry for reference.
Lab note: write the figure by itself, no unit.

| molecule | activity coefficient |
| --- | --- |
| CCCCCCCCCC [decane] + CCn1cc[n+](C)c1.F[B-](F)(F)F | 643 |
| ClCCl [dichloromethane] + CCn1cc[n+](C)c1.F[B-](F)(F)F | 1.32 |
| C1CCCCC1 [cyclohexane] + CCn1cc[n+](C)c1.F[B-](F)(F)F | 31.2 |

What value of activity coefficient has been recorded for this entry: C=Cc1ccccc1 [styrene] + CCn1cc[n+](C)c1.F[B-](F)(F)F
3.62

Which activity coefficient value is on record for C1=CCCCC1 [cyclohexene] + CCn1cc[n+](C)c1.F[B-](F)(F)F ?
12.8

Given the entry Cc1ccccc1 [toluene] + CCn1cc[n+](C)c1.F[B-](F)(F)F , report its measured activity coefficient.
3.52
